Taken from patent US20110257233A1.

Recorded measurements of IC50, one per entry
study_target: phosphomannose isomerase (PMI) (Homo sapiens, UniProt P34949)
assay: PMI enzyme inhibition assay
Format: biochemical
details: mean of at least three determinations
Answer in µM, number only, no unit symbol.

Solved cases (8 shown):
[
  {
    "molecule": "Cc1ccc(C)c(-n2sc3cc(F)ccc3c2=O)c1",
    "experimental_value": 1.1
  },
  {
    "molecule": "O=c1c2cc(F)ccc2sn1-c1ccccc1F",
    "experimental_value": 4.3
  },
  {
    "molecule": "COc1cccc(-n2sc3ccccc3c2=O)c1",
    "experimental_value": 3.7
  },
  {
    "molecule": "Cc1ccc(-n2sc3ccccc3c2=O)cc1",
    "experimental_value": 3.6
  },
  {
    "molecule": "O=c1c2ccccc2sn1-c1cccc(Cl)c1",
    "experimental_value": 4.8
  },
  {
    "molecule": "O=c1c2cc(F)ccc2sn1-c1ccccc1",
    "experimental_value": 1.3
  },
  {
    "molecule": "O=c1c2ccccc2sn1-c1cccc(C(F)(F)F)c1",
    "experimental_value": 3.4
  },
  {
    "molecule": "CCOC(=O)c1ccc(-n2sc3ccccc3c2=O)cc1",
    "experimental_value": 7.2
  }
]

Give its IC50 value. Item: Cc1cccc(-n2sc3ccccc3c2=O)c1 6

What value of IC50 has been reported for the following compound? O=c1c2cc(F)ccc2sn1-c1ccc(Cl)cc1 1.8

Reported IC50, compound CN(C)c1ccc(-n2sc3ccccc3c2=O)cc1 : ____ 1.9

* * *

assay: Microsomal stability, human
Format: in vitro ADME
details: human liver microsomes
Below, each entry is listed with its recorded Microsomal Stability (% remaining after 1 hour).
Kindly provide the numeric value in % remaining only, without the unit symbol.

Example entries begin here.
[
  {
    "molecule": "O=c1c2cc(F)ccc2sn1-c1ccc(F)cc1",
    "experimental_value": 24.93
  },
  {
    "molecule": "Cc1ccccc1-n1sc2cc(F)ccc2c1=O",
    "experimental_value": 90
  },
  {
    "molecule": "Cc1ccc(C)c(-n2sc3ccc(F)cc3c2=O)c1",
    "experimental_value": 100
  },
  {
    "molecule": "O=c1c2cc(F)ccc2sn1-c1ccccc1F",
    "experimental_value": 27.66
  }
]

// moving on: another record for Microsomal Stability (% remaining after 1 hour)
Data request, read-out Microsomal Stability (% remaining after 1 hour), for COc1ccc(-n2sc3ccc(F)cc3c2=O)cc1 100

* * *

assay: Plasma stability, human
Assay type: in vitro ADME
Criterion: Plasma Stability (% remaining after 1 hour) strictly under 50 % remaining. Met: T. Not met: F.

Is it true that Plasma Stability (% remaining after 1 hour) reported for COc1ccc(-n2sc3ccc(F)cc3c2=O)cc1 is less than 50 % remaining? F

# TODO verify Plasma Stability (% remaining after 1 hour) < 50 % remaining strictly for this compound: O=c1c2cc(F)ccc2sn1-c1ccc(F)cc1 T

Please indicate whether the reported Plasma Stability (% remaining after 1 hour) of Cc1ccc(C)c(-n2sc3ccc(F)cc3c2=O)c1 is strictly below 50 % remaining. F

For O=c1c2cc(F)ccc2sn1-c1ccccc1F , is the recorded Plasma Stability (% remaining after 1 hour) below the cut-off of 50 % remaining? T

* * *

The following compounds have recorded IC50 on phosphomannomutase 2 (PMM) (Homo sapiens).
Sequence (O15305 whole entry): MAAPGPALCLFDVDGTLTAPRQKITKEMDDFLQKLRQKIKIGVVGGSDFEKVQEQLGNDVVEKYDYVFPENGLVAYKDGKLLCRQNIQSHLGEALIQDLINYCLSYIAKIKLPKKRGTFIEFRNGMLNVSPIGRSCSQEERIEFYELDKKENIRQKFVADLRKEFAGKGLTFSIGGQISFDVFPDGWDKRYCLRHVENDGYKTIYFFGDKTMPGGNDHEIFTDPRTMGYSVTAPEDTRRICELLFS
Give the value, in units of µM, as a plain number.

Before answering, review these 2 worked examples.
[
  {
    "molecule": "COc1ccc(-n2sc3cc(F)ccc3c2=O)cc1",
    "study_target": "phosphomannomutase 2 (PMM) (Homo sapiens)",
    "IC50, µM": 12.9
  },
  {
    "molecule": "CN(C)c1ccc(-n2sc3ccccc3c2=O)cc1",
    "study_target": "phosphomannomutase 2 (PMM) (Homo sapiens)",
    "IC50, µM": 13.3
  }
]

So what's the measured IC50 for this one? COc1ccc(-n2sc3ccc(F)cc3c2=O)cc1 9.1

* * *

Test system: protein glycosylation (mannose incorporated in proteins)
assay: Cellular assay: 3H-mannose incorporated in proteins vs glycolysis
Type: cell-based
details: 50 μM
Overview of recorded fold increase in the amount of mannose incorporated in proteins vs glycolysis for various compounds
Numeric answer only, unit fold assumed.

[
  {
    "compound": "O=c1c2cc(F)ccc2sn1-c1ccccc1F [Compound 23]",
    "study_target": "protein glycosylation (mannose incorporated in proteins)",
    "experimental_value": 2.5
  }
]

Can you look up the measured fold increase in the amount of mannose incorporated in proteins vs glycolysis of Cc1ccccc1-n1sc2cc(F)ccc2c1=O [Compound 16] for me? 1.7

// fold increase in the amount of mannose incorporated in proteins vs glycolysis lookup, key: Cc1ccc(C)c(-n2sc3ccc(F)cc3c2=O)c1 [Compound 20] 3.2

Bench note: what fold increase in the amount of mannose incorporated in proteins vs glycolysis did CN(C)c1ccc(-n2sc3ccccc3c2=O)cc1 [Compound 12] show? 1.0

* * *

study_target: phosphomannose isomerase (PMI) (Homo sapiens, UniProt P34949)
Sequence (P34949 1-423): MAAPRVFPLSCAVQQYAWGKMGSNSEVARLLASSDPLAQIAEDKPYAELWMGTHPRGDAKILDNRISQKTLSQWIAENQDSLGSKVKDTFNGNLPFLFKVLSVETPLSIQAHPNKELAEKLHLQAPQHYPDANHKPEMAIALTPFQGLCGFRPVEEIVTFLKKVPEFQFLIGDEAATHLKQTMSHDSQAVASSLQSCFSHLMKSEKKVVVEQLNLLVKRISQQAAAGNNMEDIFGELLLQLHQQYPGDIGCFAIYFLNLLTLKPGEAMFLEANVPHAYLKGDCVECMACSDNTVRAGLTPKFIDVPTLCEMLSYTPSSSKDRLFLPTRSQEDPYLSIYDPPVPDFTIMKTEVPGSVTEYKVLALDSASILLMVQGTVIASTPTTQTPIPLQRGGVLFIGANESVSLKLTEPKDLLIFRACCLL
assay: PMI enzyme inhibition assay
Assay type: biochemical
details: mean of at least three determinations
outcome_measure: pIC50
Scale: negative log10 of molar concentration, which is what pIC50 denotes.

Illustrative cases are given below, each with its answer.
[
  {
    "molecule": "Cc1ccccc1-n1sc2cc(F)ccc2c1=O",
    "pIC50": 5.54
  },
  {
    "molecule": "Cc1ccc(C)c(-n2sc3ccc(F)cc3c2=O)c1",
    "pIC50": 5.72
  }
]

Now for the molecule whose pIC50 we want.
Reported pIC50, molecule COC(=O)c1cccc(-n2sc3ccccc3c2=O)c1 : ____ 5.31

* * *

study_target: phosphomannomutase 2 (PMM) (Homo sapiens)
assay: PMM enzyme inhibition assay
Assay type: biochemical
details: mean of at least three determinations
pIC50: −log10 of the molar value.
Listed here: items and their measured pIC50.

[
  {
    "compound": "O=c1c2cc(F)ccc2sn1-c1ccc(F)cc1 [Compound 21]",
    "study_target": "phosphomannomutase 2 (PMM) (Homo sapiens)",
    "pIC50": "< 4.70"
  },
  {
    "compound": "Cc1ccc(C)c(-n2sc3ccc(F)cc3c2=O)c1 [Compound 20]",
    "study_target": "phosphomannomutase 2 (PMM) (Homo sapiens)",
    "pIC50": "< 4.70"
  }
]

Continue with the compound presented below.
State its pIC50 on phosphomannomutase 2 (PMM) (Homo sapiens): COc1cccc(-n2sc3ccccc3c2=O)c1 [Compound 15] < 4.70
